test system: NCI-H1975 (Lung Adenocarcinoma); assay: combination Emax (second highest fraction inhibited in the dose matrix, 72 h); higher = more inhibition; extreme values may be limits of the assay
# cutoff 0.6 applies to combination Emax; >= gives yes (1), < gives no (0)

molecule	label.class
CN(CCO)CC[C@H](CSc1ccccc1)Nc1ccc(S(=O)(=O)NC(=O)c2ccc(N3CCC([C@@H](O)c4ccccc4-c4ccc(Cl)cc4)CC3)cc2)cc1S(=O)(=O)C(F)(F)F [AZD4320] + C=CCn1c(=O)c2cnc(Nc3ccc(N4CCN(C)CC4)cc3)nc2n1-c1cccc(C(C)(C)O)n1 [AZD1775] (first compound max 1 µM, partner max 1 µM)	no (0)
CC1(C)CCC(CN2CCN(c3ccc(C(=O)NS(=O)(=O)c4ccc(NCC5CCOCC5)c([N+](=O)[O-])c4)c(Oc4cnc5[nH]ccc5c4)c3)CC2)=C(c2ccc(Cl)cc2)C1 [Venetoclax] + C=CCn1c(=O)c2cnc(Nc3ccc(N4CCN(C)CC4)cc3)nc2n1-c1cccc(C(C)(C)O)n1 [AZD1775] (first compound max 1 µM, partner max 1 µM)	no (0)
NC1(C(=O)N[C@@H](CCO)c2ccc(Cl)cc2)CCN(c2ncnc3[nH]ccc23)CC1 [Capivasertib] + COc1nnc2ccc(N3CCC(c4ccc(OCCN5CCN(C)C(=O)[C@H]5C)cc4)CC3)nn12 [AZD5153] (first compound max 10 µM, 7x7, partner max 1 µM)	yes (1)
CN(C)CCCOc1ccc(-c2ccc3ncc4c(c3c2)n(C2CCOCC2)c(=O)n4C)cn1 [AZD0156] + O=C(c1cc(Cc2n[nH]c(=O)c3ccccc23)ccc1F)N1CCN(C(=O)C2CC2)CC1 [Olaparib] (first compound max 3 µM, partner max 3 µM)	no (0)
C=CCn1c(=O)c2cnc(Nc3ccc(N4CCN(C)CC4)cc3)nc2n1-c1cccc(C(C)(C)O)n1 [AZD1775] + O=C(c1cc(Cc2n[nH]c(=O)c3ccccc23)ccc1F)N1CCN(C(=O)C2CC2)CC1 [Olaparib] (first compound max 1 µM, partner max 10 µM)	no (0)

Now examine the next entry.
Task: Would you say CC1(C)CCC(CN2CCN(c3ccc(C(=O)NS(=O)(=O)c4ccc(NCC5CCOCC5)c([N+](=O)[O-])c4)c(Oc4cnc5[nH]ccc5c4)c3)CC2)=C(c2ccc(Cl)cc2)C1 [Venetoclax] + C1CN(CCC1(C(=O)N[C@@H](CCO)C2=CC=C(C=C2)Cl)N)C3=NC=NC4=C3C=CN4 [Capivasertib] (first compound max 1 µM, 7x7, partner max 3 µM) shows combination Emax at minimum 0.6?
Result: no (0)

====

Catalogue of Bliss excess values
test system: NCI-H2023 (Non-Small Cell Lung Carcinoma); assay: Bliss excess, mean over the matrix (fraction); higher = more synergy;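 note: after 72 h of two-drug dosing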
Just the number, please, no unit after it.

Worked examples follow.
molecule	subject.of.test	Bliss excess
Cc1c2c(nn1C)CSCc1cc(n(C)n1)CSc1cc(c3ccccc3c1)OCCCc1c(C(=O)O)n(C)c3c-2c(Cl)ccc13 [AZD5991] + Nc1ccn([C@@H]2O[C@H](CO)[C@@H](O)C2(F)F)c(=O)n1 [Gemcitabine] (first compound max 1 µM, 7x7, partner max 0.3 µM)	NCI-H2023 (Non-Small Cell Lung Carcinoma)	-0.0707
Cc1c2c(nn1C)CSCc1cc(n(C)n1)CSc1cc(c3ccccc3c1)OCCCc1c(C(=O)O)n(C)c3c-2c(Cl)ccc13 [AZD5991] + C[C@@H]1COCCN1C2=NC(=NC(=C2)C3(CC3)[S@](=N)(=O)C)C4=C5C=CNC5=NC=C4 [AZD6738] (first compound max 1 µM, 7x7, partner max 10 µM)	NCI-H2023 (Non-Small Cell Lung Carcinoma)	-0.0078
CC1(C)CCC(CN2CCN(c3ccc(C(=O)NS(=O)(=O)c4ccc(NCC5CCOCC5)c([N+](=O)[O-])c4)c(Oc4cnc5[nH]ccc5c4)c3)CC2)=C(c2ccc(Cl)cc2)C1 [Venetoclax] + C[C@@H](Nc1cc(F)cc(F)c1)c1cc(C(=O)N(C)C)cc2c(=O)cc(N3CCOCC3)oc12 [AZD8186] (first compound max 1 µM, 7x7, partner max 3 µM)	NCI-H2023 (Non-Small Cell Lung Carcinoma)	-0.0539
CC1(C)CCC(CN2CCN(c3ccc(C(=O)NS(=O)(=O)c4ccc(NCC5CCOCC5)c([N+](=O)[O-])c4)c(Oc4cnc5[nH]ccc5c4)c3)CC2)=C(c2ccc(Cl)cc2)C1 [Venetoclax] + C=CCn1c(=O)c2cnc(Nc3ccc(N4CCN(C)CC4)cc3)nc2n1-c1cccc(C(C)(C)O)n1 [AZD1775] (first compound max 1 µM, partner max 1 µM)	NCI-H2023 (Non-Small Cell Lung Carcinoma)	0.0053
CN(CCO)CC[C@H](CSc1ccccc1)Nc1ccc(S(=O)(=O)NC(=O)c2ccc(N3CCC([C@@H](O)c4ccccc4-c4ccc(Cl)cc4)CC3)cc2)cc1S(=O)(=O)C(F)(F)F [AZD4320] + CN(C)CCCOc1ccc(-c2ccc3ncc4c(c3c2)n(C2CCOCC2)c(=O)n4C)cn1 [AZD0156] (first compound max 1 µM, 7x7, partner max 1 µM)	NCI-H2023 (Non-Small Cell Lung Carcinoma)	-0.0922

Task: What value of Bliss excess has been reported for the following molecule? CN(C)CCCOc1ccc(-c2ccc3ncc4c(c3c2)n(C2CCOCC2)c(=O)n4C)cn1 [AZD0156] + CCN(CCO)CCCOc1ccc2c(Nc3cc(CC(=O)Nc4cccc(F)c4)[nH]n3)ncnc2c1 [AZD2811] (first compound max 1 µM, 7x7, partner max 1 µM)
Result: 0.0066

Task: Also need Cc1cc2ncnn2cc1Nc1ncc2c(n1)n(C1CCOCC1)c(=O)n2C [AZD7648] + COc1cc([C@@H]2c3cc4c(cc3[C@@H](O[C@@H]3O[C@@H]5CO[C@@H](C)O[C@H]5[C@H](O)[C@H]3O)[C@H]3COC(=O)[C@H]23)OCO4)cc(OC)c1O [Etoposide] (first compound max 10 µM, 7x7, partner max 10 µM) , thanks.
Result: 0.0401

Task: Moving on to the next molecule: NC1(C(=O)N[C@@H](CCO)c2ccc(Cl)cc2)CCN(c2ncnc3[nH]ccc23)CC1 [Capivasertib] + COc1nnc2ccc(N3CCC(c4ccc(OCCN5CCN(C)C(=O)[C@H]5C)cc4)CC3)nn12 [AZD5153] (first compound max 10 µM, 7x7, partner max 1 µM)
Result: 0.0221

Task: Could you do the same for COc1cccc(OCCCN)c1-c1cc(Nc2cnc(C#N)cn2)n[nH]1 [Prexasertib] + C[C@@H]1COCCN1C2=NC(=NC(=C2)C3(CC3)[S@](=N)(=O)C)C4=C5C=CNC5=NC=C4 [AZD6738] (first compound max 1 µM, 7x7, partner max 10 µM) , please?
Result: 0.0108

Task: # iterate: COc1nnc2ccc(N3CCC(c4ccc(OCCN5CCN(C)C(=O)[C@H]5C)cc4)CC3)nn12 [AZD5153] + C[C@@H]1COCCN1C2=NC(=NC(=C2)C3(CC3)[S@](=N)(=O)C)C4=C5C=CNC5=NC=C4 [AZD6738] (first compound max 1 µM, 7x7, partner max 10 µM)
Result: 0.0692

Task: // query: Cc1c2c(nn1C)CSCc1cc(n(C)n1)CSc1cc(c3ccccc3c1)OCCCc1c(C(=O)O)n(C)c3c-2c(Cl)ccc13 [AZD5991] + CC1(C)CCC(CN2CCN(c3ccc(C(=O)NS(=O)(=O)c4ccc(NCC5CCOCC5)c([N+](=O)[O-])c4)c(Oc4cnc5[nH]ccc5c4)c3)CC2)=C(c2ccc(Cl)cc2)C1 [Venetoclax] (first compound max 1 µM, 7x7, partner max 1 µM)
Result: -0.0387

Task: What do we get for COc1nnc2ccc(N3CCC(c4ccc(OCCN5CCN(C)C(=O)[C@H]5C)cc4)CC3)nn12 [AZD5153] + CC1(C)CCC(CN2CCN(c3ccc(C(=O)NS(=O)(=O)c4ccc(NCC5CCOCC5)c([N+](=O)[O-])c4)c(Oc4cnc5[nH]ccc5c4)c3)CC2)=C(c2ccc(Cl)cc2)C1 [Venetoclax] (first compound max 1 µM, 7x7, partner max 1 µM) ?
Result: -0.0832

Task: Now consider COc1cccc(OCCCN)c1-c1cc(Nc2cnc(C#N)cn2)n[nH]1 [Prexasertib] + CCc1c2c(nc3ccc(O)cc13)-c1cc3c(c(=O)n1C2)COC(=O)[C@]3(O)CC [SN-38] (first compound max 1 µM, 7x7, partner max 0.3 µM) .
Result: -0.0527

====

tested on: CAL-85-1 (Breast Carcinoma); assay: combination Emax (second highest fraction inhibited in the dose matrix, 72 h); higher = more inhibition; extreme values may be limits of the assay
// reported combination Emax for each item listed
Lab note: record just the number, no unit beside it.

Task: Name the reported combination Emax value associated with the compound COc1nnc2ccc(N3CCC(c4ccc(OCCN5CCN(C)C(=O)[C@H]5C)cc4)CC3)nn12 [AZD5153] + Cn1cnc2c(F)c(Nc3ccc(Br)cc3Cl)c(C(=O)NOCCO)cc21 [Selumetinib] (first compound max 1 µM, 7x7, partner max 10 µM)
Result: 0.687
